- Tested on: pancreatic ductal adenocarcinoma #03
- PROCEDURE DETAILS: antitumor activity in mice against pancreatic ductal adenocarcinoma #03 (Panc 03)
- Assay type: in vivo
- CONDITION CONTEXT: Table 1; average body weight 25 g; total doses as in E1
Listing: Weight Loss of selected compounds
Respond numerically; units are g and should not be typed.

Give Weight Loss only, for CCN(CC)CCNc1ccc(CNC(C)=O)c2sc3ccccc3c(=O)c12 [Example 10] , using pancreatic ductal adenocarcinoma #03 data.
2.4

Give Weight Loss only, for CCN(CC)CCNc1ccc(CNC)c2sc3ccc(OC)cc3c(=O)c12 [Example 30(h)] , using pancreatic ductal adenocarcinoma #03 data.
1.4

Give Weight Loss only, for CCN(CC)CCNc1ccc(CNC=O)c2sc3ccccc3c(=O)c12 [Example 2] , using pancreatic ductal adenocarcinoma #03 data.
2.0

Give Weight Loss only, for CCN(C=O)Cc1ccc(NCCN(CC)CC)c2c(=O)c3ccccc3sc12 [Example 13] , using pancreatic ductal adenocarcinoma #03 data.
2.4

Give Weight Loss only, for CCN(CC)CCNc1ccc(CNS(C)(=O)=O)c2sc3ccc(Br)cc3c(=O)c12 [Example 33] , using pancreatic ductal adenocarcinoma #03 data.
2.0

Give Weight Loss only, for CCN(CC)CCNc1ccc(CNS(=O)(=O)CC)c2sc3ccccc3c(=O)c12.CS(=O)(=O)O [Example 24] , using pancreatic ductal adenocarcinoma #03 data.
2.3

Give Weight Loss only, for CCN(CC)CCNc1ccc(CNC)c2sc3ccccc3c(=O)c12 [Example 5] , using pancreatic ductal adenocarcinoma #03 data.
1.6

Give Weight Loss only, for CN(C)CCNc1ccc(CN)c2sc3ccccc3c(=O)c12 [18(e), hydrate] , using pancreatic ductal adenocarcinoma #03 data.
1.0

Give Weight Loss only, for CCOP(=O)(NCc1ccc(NCCN(CC)CC)c2c(=O)c3ccccc3sc12)OCC [Example 12] , using pancreatic ductal adenocarcinoma #03 data.
3.2

Give Weight Loss only, for CCN(CC)CCNc1ccc(CN(C)S(=O)(=O)CC)c2sc3ccccc3c(=O)c12.CS(=O)(=O)O [Example 22] , using pancreatic ductal adenocarcinoma #03 data.
3.2

Next:
Give Weight Loss only, for CCN(CC)CCNc1ccc(CN(CC)S(C)(=O)=O)c2sc3ccccc3c(=O)c12 [Example 25] , using pancreatic ductal adenocarcinoma #03 data.
4.6

Give Weight Loss only, for CN(C)CCNc1ccc(CNS(C)(=O)=O)c2sc3ccccc3c(=O)c12.CS(=O)(=O)O [18(f)] , using pancreatic ductal adenocarcinoma #03 data.
5.2

Give Weight Loss only, for CCN(CC)CCNc1ccc(CNS(=O)(=O)c2ccc(OC)cc2)c2sc3ccccc3c(=O)c12.CS(=O)(=O)O [Example 23] , using pancreatic ductal adenocarcinoma #03 data.
2.4

Give Weight Loss only, for CCN(CC)CCNc1ccc(CNS(C)(=O)=O)c2sc3ccccc3c(=O)c12 [Example 6] , using pancreatic ductal adenocarcinoma #03 data.
1.6

Give Weight Loss only, for CCCN(Cc1ccc(NCCN(CC)CC)c2c(=O)c3ccccc3sc12)S(C)(=O)=O [Example 28] , using pancreatic ductal adenocarcinoma #03 data.
2.8
